target.or.test.system: T1, Sec8-His (section 8 (Sec8), an antigenic region of CSP-1, tagged with a polyhistidine (His) tag)
T1 construct: also called Sec8-His antigen
T1 chain: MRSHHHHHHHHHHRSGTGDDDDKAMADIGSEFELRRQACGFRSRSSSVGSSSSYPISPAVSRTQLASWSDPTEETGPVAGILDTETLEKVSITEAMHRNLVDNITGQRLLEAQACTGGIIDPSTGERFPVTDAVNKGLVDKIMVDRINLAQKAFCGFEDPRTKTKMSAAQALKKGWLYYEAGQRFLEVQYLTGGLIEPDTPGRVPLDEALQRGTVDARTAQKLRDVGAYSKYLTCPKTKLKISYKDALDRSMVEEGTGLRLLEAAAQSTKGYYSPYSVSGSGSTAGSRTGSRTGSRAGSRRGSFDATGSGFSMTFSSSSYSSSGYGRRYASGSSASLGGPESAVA
protocol.summary: BLI (Octet), single shot: antibody on anti-human IgG tips, 24 nM Sec8-His
value.type: binding result

Problem: Given the binder humanized anti-CSP-1 antibody, Antibody Number 37 (Table 1) (antibody, human IgG1, V domains shown, also called Antibody 37) VH: EVQLVESGGGLVQPGGSLRLSCAASGFTFSRYGMSWVRQAPGKRLEWVATISIGGTYTYYPDSMKGRFTISRDNSKNTLYLQMNSLRAEDTAMYYCARRGYGNYSYYGMDYWGQGTLVTVSS VL: DIVMTQSALSLPVTLGQSASISCRSSKSLLHSNGITYLYWYLQKPGQSPQLLIYQMSNRASGVPDRFSSSGSGTDFTLKISRVEAEDVGVYYCAQNLELPLTFGQGTKLEIK , what is its reported binding result?
Solution: binds

Problem: # input binder: humanized anti-CSP-1 antibody, Antibody Number 50 (Table 1) (antibody, human IgG1, V domains shown, also called Antibody 50) VH: EVQLVESGGGLVQPGGSLRLSCAASGFTFSRYGMSWVRQAPGKRLEWVATISIGGTYTYYPDSMKGRFTISRDNSKNTLYLQMNSLRAEDTAMYYCARRGYGQYSYYGLDYWGQGTLVTVSS VL: DIVMTQSALSNPVTLGQSASISCRSSKSLLHSNGITYLYWYLQKPGQSPQLLIYQMSNRASGVPDRFSSSGSGTDFTLKISRVEAEDVGVYYCAQNLELPLTFGQGTKLEIK ; wanted: its binding result
Solution: binds
